meta.source: ChEMBL document CHEMBL3877244

# testName: Displacement of [3H]-DTG from sigma 2 receptor in rat liver membranes after 120 mins by scintillation counting analysis
# Assay type: cell membranes, Membrane
observedProperty: Ki (nM)
One number for each entry, in nM.

Fill in: Ki of O[C@@H](CN1C2CCC1CC(c1ccccc1)C2)c1cccc(Br)c1 (stereo partly specified) is ___
12.3

---

# testName: Binding affinity to sigma 2 receptor (unknown origin)
observedProperty: Ki (µM)
One number for each entry, in µM.

Fill in: Ki of COc1ccc(C)cc1NC(=O)OC1CC2CCCC(C1)N2CCCCCCCCCCN (stereo unspecified) is ___
0.019

---

# testName: Displacement of [3H]-DTG from sigma 2 receptor in rat liver after 120 mins by scintillation counting analysis
observedProperty: log10(Ki) (log10 of the value in nM)
Give log10 of Ki, with Ki taken in nM.

[
  {
    "molecule": "CC(O)(CCN1CCC(Cc2ccccc2)CC1)c1ccccc1 (stereo in doubt; 2a)",
    "observedProperty": "log10(Ki)",
    "measured": 2.53
  },
  {
    "molecule": "CC(O)(CCN1CCC(Cc2ccccc2)CC1)c1ccc2ccccc2c1 (single isomer, unassigned; (+))",
    "observedProperty": "log10(Ki)",
    "measured": 1.91
  },
  {
    "molecule": "CC(CCN1CCC(Cc2ccccc2)CC1)c1ccc2ccccc2c1 (racemic)",
    "observedProperty": "log10(Ki)",
    "measured": 2.16
  },
  {
    "molecule": "CC(CCN1CCC(Cc2ccccc2)CC1)c1ccc2cc(O)ccc2c1 (single isomer, unassigned; (-))",
    "observedProperty": "log10(Ki)",
    "measured": 2.02
  },
  {
    "molecule": "C/C(=C\\CN1CCC(Cc2ccccc2)CC1)c1ccccc1",
    "observedProperty": "log10(Ki)",
    "measured": 1.67
  },
  {
    "molecule": "CC(CCN1CCC(Cc2ccccc2)CC1)c1ccccc1 (single isomer, unassigned; (+))",
    "observedProperty": "log10(Ki)",
    "measured": 0.95
  },
  {
    "molecule": "CC(CCN1CCC(Cc2ccccc2)CC1)c1ccccc1 (racemic)",
    "observedProperty": "log10(Ki)",
    "measured": 0.81
  },
  {
    "molecule": "CC(CCN1CCC(Cc2ccccc2)CC1)c1ccc2ccccc2c1 (single isomer, unassigned; (-))",
    "observedProperty": "log10(Ki)",
    "measured": 1.99
  },
  {
    "molecule": "CC(O)(CCN1CCC(Cc2ccccc2)CC1)c1ccccc1 (racemic)",
    "observedProperty": "log10(Ki)",
    "measured": 1.76
  },
  {
    "molecule": "CC(O)(CCN1CCC(Cc2ccccc2)CC1)c1ccc2cc(O)ccc2c1 (racemic)",
    "observedProperty": "log10(Ki)",
    "measured": 2.07
  }
]

Give me log10(Ki) for each of these molecules, listed below.
1. C/C(=C\CN1CCC(Cc2ccccc2)CC1)c1ccc2cc(O)ccc2c1
2. CC(O)(CCN1CCC(Cc2ccccc2)CC1)c1ccc2cc(O)ccc2c1 (stereo in doubt; 9a)

1. 2.48
2. 1.83
